Quick reference: normalised viability of the listed items.
Test system: SK-BR-3
test.protocol: normalised viability (% of control), CellTiter-Blue; higher = more viable cells (about 100 = DMSO control)
assay.context: 10 nM; incubation time: 72 h

Here is how some compounds turned out for normalised viability.
Cc1ccc(-n2nc(C(C)(C)C)cc2NC(=O)Nc2ccc(OCCN3CCOCC3)c3ccccc23)cc1: 91.1%
CC(C)Cn1cnc2c(N)nc3ccccc3c21: 85%
C=C(c1ccc(C(=O)O)cc1)c1cc2c(cc1C)C(C)(C)CCC2(C)C: 100%

API: the following record is the query input.
Q: Give the measured normalised viability for COc1cc([C@@H]2c3cc4c(cc3[C@@H](O[C@@H]3O[C@@H]5CO[C@@H](C)O[C@H]5[C@H](O)[C@H]3O)[C@H]3COC(=O)[C@H]23)OCO4)cc(OC)c1O [Etoposide]
Ans: 98.2%
